// data source = PubChem BioAssay AID1159580

# PROCEDURE_TEXT: chemical genetic growth profiling, strain panel (AID 1159580);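 further: tested at 20 µM; growth read once vehicle control cultures reached saturation at 30 °C; 1 = growth at the plate median or of vehicle wells; lower values mean less growth of the strain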
# TEST_CONTEXT: S. cerevisiae deletion strains, growth OD, locus YOR270C, strain vph1, stronger effect = lower value
About 2,000 (36%) of roughly 5,500 compounds were called active. Another 18% or so got no clear call; they are omitted. Some of the results follow.
Binning of normalized growth into classes: lowest (below 0.9), middle (0.9 to below 1), highest (1 or more)

compound="CC(C)CCCC(C)C1CCC2C3CC(=O)[C@H]4C[C@@H](O)CC[C@]4(C)C3CC[C@]12C (stereo not given in full)" classification=highest
compound=C=C1C[C@]23C[C@@]1(O)CC[C@H]2[C@@]12C=C[C@H](O)[C@@](C)(C(=O)O1)[C@H]2[C@@H]3C(=O)O classification=highest
compound=COC(=O)c1c(C)c2c(c(C)c1O)OC(=O)c1c(C)c(Cl)c(O)c(Cl)c1O2 classification=lowest
compound=CC(=O)c1ccc(O)c(CC=C(C)C)c1 classification=lowest
compound=O=C1NC(O)=NC1(c1ccccc1)c1ccccc1 classification=highest
compound=COC(=O)c1c(OC)cc2c(c1C)Oc1c(Cl)c(OC(C)=O)c(Cl)c(C)c1C(=O)O2 classification=middle
compound=Cc1nc(N)cc(C[n+]2csc(CCO)c2C)n1 classification=middle

====

Below: a set of entries, each annotated with reported normalized growth.
# PROCEDURE_TEXT: chemical genetic growth profiling, strain panel (AID 1159580)
# TEST_CONTEXT: S. cerevisiae deletion strains, growth OD, locus YNL298W, strain CLA4, stronger effect = lower value
Among all 5,500 compounds or so, about 2,000 (36%) were called active. Inconclusive results (about 18%) are left out. The list shows a part of the results.
QUANTITY_MEASURED: normalized growth

compound=CCCN(CCC)S(=O)(=O)c1ccc(C(=O)O)cc1 number=1.01
compound="CC12CCC(=O)C=C1CCC1C2[C@@H](O)CC2(C)C1CC[C@]2(O)C(=O)COP(=O)(O)O (stereo not given in full)" number=0.992
compound=CN(C)C(=O)Oc1cccc([N+](C)(C)C)c1 number=0.979
compound="CC(=O)O[C@H]1CC[C@@]2(C)C(=CC(=O)C3C4CCC(C(C)CCCC(C)C)[C@@]4(C)CCC32)C1 (stereo not given in full)" number=1.01
compound=O=C(NCO)c1cccnc1 number=0.996

====

Below: a set of entries, each annotated with reported normalized growth.
# PROCEDURE_TEXT: chemical genetic growth profiling, strain panel (AID 1159580)
# TEST_CONTEXT: S. cerevisiae deletion strains, growth OD, locus YDR001C, strain nth1, stronger effect = lower value
Among all 5,500 compounds or so, about 2,000 (36%) were called active. Roughly 18% stayed inconclusive and do not appear here. This is one part of the list.
QUANTITY_MEASURED: normalized growth

molecule=C[n+]1ccccc1/C=N/O quantity_measured="normalized growth" number=0.997
molecule=NC(=O)NC(=O)Cc1ccccc1 quantity_measured="normalized growth" number=0.98
molecule=O=C(OOC(=O)c1ccccc1)c1ccccc1 quantity_measured="normalized growth" number=0.976
molecule=COC(=O)/C(=C1\OC(=O)C(c2ccccc2)=C1O)c1ccccc1 quantity_measured="normalized growth" number=0.958
molecule="CC(C)CCCC(C)[C@H]1CCC2C3CC=C4CC(=O)CC[C@]4(C)C3CC[C@@]21C (stereo not given in full)" quantity_measured="normalized growth" number=0.99
molecule="CC(C)CCCC(C)C1CCC2C3C[C@@H](O)[C@@]4(O)C[C@@H](O)CC[C@]4(C)C3CC[C@]12C (stereo not given in full)" quantity_measured="normalized growth" number=1
molecule=O=C(OCc1ccccc1)c1ccccc1 quantity_measured="normalized growth" number=0.943
molecule=CC(C)=CCc1c2c(c3occ(-c4ccc(O)c(O)c4)c(=O)c3c1O)C=CC(C)(C)O2 quantity_measured="normalized growth" number=1
molecule="CCC(C)C(=O)OC1[C@@H]2CC3=C4CC(=O)O[C@@H](c5ccoc5)[C@]4(C)CCC3[C@@](C)(C2=O)[C@@H](CC(=O)OC)C1(C)C (stereo not given in full)" quantity_measured="normalized growth" number=1
molecule=CCOC(=O)[C@H](CCc1ccccc1)N[C@@H](C)C(=O)N1CCC[C@H]1C(=O)O quantity_measured="normalized growth" number=0.996

====

# PROCEDURE_TEXT: chemical genetic growth profiling, strain panel (AID 1159580);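 further: tested at 20 µM; growth read once vehicle control cultures reached saturation at 30 °C; 1 = growth at the plate median or of vehicle wells; lower values mean less growth of the strain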
# TEST_CONTEXT: S. cerevisiae deletion strains, growth OD, locus YLR370C, strain arc18, stronger effect = lower value
The whole screen tested about 5,500 compounds, of which about 2,000 (36%) were called active. Inconclusive results (about 18%) are left out. Some of the results follow.
QUANTITY_MEASURED: normalized growth

compound=C[C@H]1c2cccc(O)c2C(O)=C2C(=O)[C@]3(O)C(O)=C(C(N)=O)C(=O)[C@@H](N(C)C)[C@@H]3[C@@H](O)[C@@H]21 quantity_measured="normalized growth" number=0.982
compound="CC(Cc1cccc(C(F)(F)F)c1)NCCOC(=O)c1ccccc1 (centres undefined)" quantity_measured="normalized growth" number=0.931
compound=CNCCCC12CCC(c3ccccc31)c1ccccc12 quantity_measured="normalized growth" number=0.98
compound=C=C1c2cccc(O)c2C(O)=C2C(=O)[C@]3(O)C(O)=C(C(N)=O)C(=O)[C@@H](N(C)C)[C@@H]3[C@@H](O)[C@H]12 quantity_measured="normalized growth" number=1.02

====

# PROCEDURE_TEXT: chemical genetic growth profiling, strain panel (AID 1159580);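 further: tested at 20 µM; growth read once vehicle control cultures reached saturation at 30 °C; 1 = growth at the plate median or of vehicle wells; lower values mean less growth of the strain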
# TEST_CONTEXT: S. cerevisiae deletion strains, growth OD, locus YIL066C, strain RNR3, stronger effect = lower value
Hit rate of the full screen: of about 5,500 compounds, about 2,000 (36%) were called active. Another 18% or so got no clear call; they are omitted. This is one part of the list.
QUANTITY_MEASURED: normalized growth

compound="CC(C)CCCC(C)C1CCC2C3C[C@@H](O)[C@@]4(O)C[C@@H](O)CC[C@]4(C)C3CC[C@]12C (stereo not given in full)" quantity_measured="normalized growth" number=1.02
compound="O=P1(N(CCCl)CCCl)NCCCO1 (stereo not given)" quantity_measured="normalized growth" number=1.02
compound="CC(C)CCCC(C)C1CCC2C3CC[C@H]4C[C@@H](O)CC[C@]4(C)C3CC[C@]12C (stereo not given in full)" quantity_measured="normalized growth" number=1
compound="CC(C)CCCC(C)[C@H]1CCC2C3CC=C4CC(=O)CC[C@]4(C)C3CC[C@@]21C (stereo not given in full)" quantity_measured="normalized growth" number=0.952
compound="CC(=O)OCC(=O)[C@@]1(O)[C@H](C)CC2C3CCC4=CC(=O)C=C[C@]4(C)[C@@]3(F)[C@@H](O)C[C@@]21C (stereo not given in full)" quantity_measured="normalized growth" number=1.02

====

# PROCEDURE_TEXT: chemical genetic growth profiling, strain panel (AID 1159580);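 further: tested at 20 µM; growth read once vehicle control cultures reached saturation at 30 °C; 1 = growth at the plate median or of vehicle wells; lower values mean less growth of the strain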
# TEST_CONTEXT: S. cerevisiae deletion strains, growth OD, locus YCR088W, strain abp1
In all, about 5,500 compounds went through this assay and about 2,000 (36%) were called active. Not shown: some 18% with an inconclusive outcome. Rule as the data show it: active = normalized growth mostly below about 0.91 (no sharp cut-off); inconclusive = no clear call, values can overlap the other calls; inactive = mostly above about 0.92. This is one part of the list.
Possible outcomes: 1 (yes) (active), 0 (no) (inactive)

molecule="CN1CCN(C(=O)OC2c3nccnc3C(=O)N2c2ccc(Cl)cn2)CC1 (centres undefined)" classification="0 (no)"
molecule="CC(N=C(NC#N)Nc1ccncc1)C(C)(C)C (centres undefined)" classification="0 (no)"
molecule=CC(=O)Oc1cccc(O)c1 classification="0 (no)"
molecule="CC(=O)O[C@@H]1CC2C(C)(C)C(=O)C=C[C@]2(C)C2CC[C@]3(C)C(=CC(=O)O[C@H]3c3ccoc3)[C@@]21C (some centres undefined)" classification="0 (no)"
molecule="O=P1(N(CCCl)CCCl)NCCCO1 (centres undefined)" classification="0 (no)"
molecule=COC(=O)c1c(OC)cc2c(c1C)Oc1c(Cl)c(O)c(Cl)c(C)c1C(=O)O2 classification="0 (no)"
molecule=Oc1cccc(O)c1 classification="0 (no)"
molecule="CC(C)CCCC(C)C1CCC2C3=CC[C@H]4C[C@@H](O)CC[C@]4(C)C3CC[C@@]21C (some centres undefined)" classification="0 (no)"
molecule=Oc1c(Cl)cc(Cl)cc1Sc1cc(Cl)cc(Cl)c1O classification="1 (yes)"
molecule="CC1=CCCC2C1(C)CCC(C)C2(C)CC/C(C)=C/C[n+]1cn(C)c2c(N)ncnc21 (centres undefined)" classification="0 (no)"
molecule=O=C(OOC(=O)c1ccccc1)c1ccccc1 classification="0 (no)"
molecule="CC(=O)O[C@H]1CCC2(C)C3=C(CCC2C1(C)C)[C@@]1(C)CC[C@@H](C(C)CCC=C(C)C)[C@]1(C)CC3 (some centres undefined)" classification="0 (no)"
molecule="CC(=O)O[C@H]1CC[C@@]2(C)C(=CC(=O)C3C4CCC(C(C)CCCC(C)C)[C@@]4(C)CCC32)C1 (some centres undefined)" classification="0 (no)"
molecule=O=C(CC(=O)c1ccccc1)c1ccccc1 classification="1 (yes)"
molecule="NCC(N)C(=O)c1ccccc1 (centres undefined)" classification="0 (no)"
molecule=CC(=O)Oc1ccc(C(c2ccc(OC(C)=O)cc2)c2ccccn2)cc1 classification="0 (no)"
molecule="CC(C)=CCCC(C)[C@@H]1CC[C@]2(C)C3=C(CC[C@@]12C)C1(C)CC[C@H](O)C(C)(C)C1CC3 (some centres undefined)" classification="1 (yes)"
molecule=CS(=O)(=O)c1ccc([C@@H](O)[C@@H](CO)NC(=O)C(Cl)Cl)cc1 classification="0 (no)"
molecule=COC(=O)c1c(OC)cc2c(c1C)Oc1c(Cl)c(OC(C)=O)c(Cl)c(C)c1C(=O)O2 classification="0 (no)"
molecule=NCC(=O)c1ccccc1 classification="0 (no)"
molecule="CO[C@H]1CC(O[C@@H]2/C(C)=C/C[C@@H]3C[C@@H](C[C@]4(CC[C@H](C)[C@@H](C5CCCCC5)O4)O3)OC(=O)[C@@H]3C=C(C)/C(=N\\O)[C@H]4OC/C(=C\\C=C\\[C@@H]2C)[C@]43O)O[C@@H](C)C1O (some centres undefined)" classification="0 (no)"
molecule="CC(C)CCCC(C)C1CCC2C3CC(=O)[C@H]4C[C@@H](O)CC[C@]4(C)C3CC[C@]12C (some centres undefined)" classification="0 (no)"
molecule="CC(=O)O[C@H]1CC[C@@]2(C)C(C[C@@H](OC(C)=O)[C@@]3(C)C4=CC(=O)O[C@@H](c5ccoc5)[C@]4(C)CCC23)C1(C)C (some centres undefined)" classification="0 (no)"
molecule="CC(=O)OCC(=O)[C@@]1(O)[C@H](C)CC2C3CCC4=CC(=O)C=C[C@]4(C)[C@@]3(F)[C@@H](O)C[C@@]21C (some centres undefined)" classification="0 (no)"
molecule=CCOC(=O)[C@H](CCc1ccccc1)N[C@@H](C)C(=O)N1CCC[C@H]1C(=O)O classification="0 (no)"
molecule=CC(=O)c1cc(CC=C(C)C)c(O)c(CC=C(C)C)c1 classification="0 (no)"
molecule="CC(C)CCCC(C)[C@H]1CCC2C3CC=C4C[C@@H](O)CC[C@]4(C)C3CC[C@@]21C (some centres undefined)" classification="0 (no)"
molecule=OC[C@H]1O[C@@H](O[C@@H]2[C@@H](CO)O[C@](O)(CO)[C@H]2O)[C@H](O)[C@@H](O)[C@H]1O classification="0 (no)"
molecule=O=C1NC(O)=NC1(c1ccccc1)c1ccccc1 classification="0 (no)"
molecule=CC(=O)N[C@@H](Cc1c[nH]c2ccccc12)C(N)=O classification="0 (no)"
molecule=Cc1cc(=O)oc2cc(O)c(O)cc12 classification="0 (no)"
molecule="CC(=O)O[C@H]1CCC2(C)C3=C(CCC2C1(C)C)[C@]1(C)CCC(C(C)CCC=C(C)C)[C@@]1(C)CC3 (some centres undefined)" classification="0 (no)"
molecule="CCC(C)[C@H]1O[C@]2(C=C[C@@H]1C)C[C@@H]1C[C@@H](C/C=C(\\C)[C@@H](OC3C[C@H](OC)C(O[C@H]4C[C@H](OC)[C@@H](O)[C@H](C)O4)[C@H](C)O3)[C@@H](C)/C=C/C=C3\\CO[C@@H]4[C@H](O)C(C)=C[C@@H](C(=O)O1)[C@]34O)O2 (some centres undefined)" classification="0 (no)"
molecule="Cc1c(C)c2c(c(C)c1O)CCC(C)(CCCC(C)CCCC(C)CCCC(C)C)O2 (centres undefined)" classification="0 (no)"
molecule="CC(C)c1ccc2c(c1)CCC1C(C)(C(N)=O)CCCC21C (centres undefined)" classification="0 (no)"
molecule=C/C1=C/CC(C)(C)/C=C/C/C(C)=C/CC1 classification="0 (no)"
molecule=CC(=O)c1ccc(O)c(CC=C(C)C)c1 classification="0 (no)"
molecule="CC(C)c1ccc2c(c1)CCC1[C@](C)(CN)CCC[C@]21C (some centres undefined)" classification="0 (no)"
molecule=Cc1scc2c1N(C(=O)CN1CCN(C)CC1)c1ccccc1NC2=O classification="0 (no)"
